- Test system: 60 different human tumor cell lines
- Conditions Used: read-out: LC50; HCT-15 (Colon Cancer), five dose
Metric Name: CC50 (µM)

* C[C@]12CCc3nc(N)sc3C1=CC[C@@H]1[C@@H]2CC[C@]2(C)C(=NNC(N)=O)CC[C@@H]12 | 5.6

* * *

- System: 60 different human tumor cell lines
- Test Method Notes: cells
- Conditions Used: RXF 393, read-out: LC50
Metric Name: CC50 (µM)

* C[C@]12CC[C@H]3[C@@H](CC=C4c5sc(-c6ccc(O)cc6)nc5CC[C@@]43C)[C@@H]1CC[C@@H]2O | 8.58
* C[C@]12CCc3sc(Nc4cccc(O)c4)nc3C1=CC[C@@H]1[C@@H]2CC[C@]2(C)C(=O)CC[C@@H]12 | 48.9
* C[C@]12CC[C@H]3[C@@H](CC=C4c5sc(Nc6ccccc6)nc5CC[C@@]43C)[C@@H]1CC[C@@H]2O | 5.81
* C[C@]12CCc3sc(NCCc4ccccc4)nc3C1=CC[C@@H]1[C@@H]2CC[C@]2(C)C(=O)CC[C@@H]12 | 30.9

* * *

Listed compounds paired with reported GI50
- System: 60 different human tumor cell lines
- Test Method Notes: cells
- Conditions Used: CCRF-CEM
Metric Name: GI50 (nM)

• C[C@]12CCc3sc(NCCc4ccccc4)nc3C1=CC[C@@H]1[C@@H]2CC[C@]2(C)C(=O)CC[C@@H]12 [IIa.2] = 2630
• C[C@]12CCc3sc(Nc4ccc(OC(F)(F)F)cc4)nc3C1=CC[C@@H]1[C@@H]2CC[C@]2(C)C(=O)CC[C@@H]12 [IIa.19] = 1420
• C[C@]12CC[C@H]3[C@@H](CC=C4c5sc(Nc6ccccc6)nc5CC[C@@]43C)[C@@H]1CC[C@@H]2O [IIIa.10] = 1600
• C[C@]12CC[C@H]3[C@@H](CC=C4c5sc(-c6ccc(O)cc6)nc5CC[C@@]43C)[C@@H]1CC[C@@H]2O [III.5] = 2050
• C[C@]12CCc3sc(Nc4ccc(F)cc4F)nc3C1=CC[C@@H]1[C@@H]2CC[C@]2(C)C(=O)CC[C@@H]12 [IIa.10] = 2640
• C[C@]12CCc3sc(Nc4cccc(O)c4)nc3C1=CC[C@@H]1[C@@H]2CC[C@]2(C)C(=O)CC[C@@H]12 [IIa.17] = 2840

* * *

- Tested on: 60 different human tumor cell lines
- Conditions Used: read-out: LC50; UO-31 (Renal Cancer), five dose
// reported CC50 per item
Metric Name: CC50 (µM)

- C[C@]12CCc3nc(N)sc3C1=CC[C@@H]1[C@@H]2CC[C@]2(C)C(=NNC(N)=O)CC[C@@H]12: 5.44
- C[C@]12CCc3nc(Nc4ccc(O)cc4)sc3C1=CC[C@@H]1[C@@H]2CC[C@]2(C)C(=O)CC[C@@H]12: 9.49

* * *

- Test system: SK-MEL-28
- Test Method Notes: Melanoma cytotoxicity assay (resazurin)
- Format: cell-based
- Conditions Used: SK-MEL-28 melanoma cells, 24 hours with compound, resazurin; concentration not given
Metric Name: SK-MEL-28 (% inhibition)

* C[C@]12CCc3sc(Nc4ccc(OC(F)(F)F)cc4)nc3C1=CC[C@@H]1[C@@H]2CC[C@]2(C)C(=O)CC[C@@H]12 | 97%
* C[C@]12CCc3sc(Nc4ccccc4F)nc3C1=CC[C@@H]1[C@@H]2CC[C@]2(C)C(=O)CC[C@@H]12 | 66%
* CCCCNC1=NC2C3=CC[C@@H]4[C@H](CC[C@]5(C)C(=O)CC[C@@H]45)[C@@]3(C)CCC2S1 (stereo partly shown) | 93%
* C[C@]12CCc3sc(NCc4ccccc4)nc3C1=CC[C@@H]1[C@@H]2CC[C@]2(C)C(=O)CC[C@@H]12 | 97%
* C[C@]12CCc3sc(Nc4ccccc4[N+](=O)[O-])nc3C1=CC[C@@H]1[C@@H]2CC[C@]2(C)C(=O)CC[C@@H]12 | 6%
* C[C@]12CCc3sc(Nc4ccccc4)nc3C1=CC[C@@H]1[C@@H]2CC[C@]2(C)C(=O)CC[C@@H]12 | 43%
* C[C@]12CCc3sc(N)nc3C1=CC[C@@H]1[C@@H]2CC[C@]2(C)C(=O)CC[C@@H]12 | 1%
